- Tested on: HCT-116 human colon carcinoma cells
- assayOverview: MTS cytotoxicity assay (72 h exposure)
- Type: cell-based
- testContext: Homo sapiens, HCT-116, 72 h, read-out: Cytotoxicity Assay IC50 against HCT 116 Human colon tumor cell line
Quick reference for IC50 among some molecules
valueType: IC50 (nM)

CC(=O)O[C@H]1C(=O)[C@]2(C)C[C@@H](SCC#N)[C@H]3OC[C@@]3(OC(C)=O)[C@H]2[C@H](OC(=O)c2ccccc2)[C@]2(O)C[C@H](OC(=O)[C@H](O)[C@@H](NC(=O)c3ccccc3)c3ccccc3)C(C)=C1C2(C)C : 4.4
CC(=O)O[C@H]1C(=O)[C@]2(C)C[C@@H](SCc3ccccc3)[C@H]3OC[C@@]3(OC(C)=O)[C@H]2[C@H](OC(=O)c2ccccc2)[C@]2(O)C[C@H](OC(=O)[C@H](O)[C@@H](NC(=O)c3ccccc3)c3ccccc3)C(C)=C1C2(C)C : 5.27
CC(=O)O[C@H]1C(=O)[C@]2(C)C[C@@H]([S+](C)[O-])[C@H]3OC[C@@]3(OC(C)=O)[C@H]2[C@H](OC(=O)c2ccccc2)[C@]2(O)C[C@H](OC(=O)[C@H](O)[C@@H](NC(=O)OC(C)(C)C)c3ccccc3)C(C)=C1C2(C)C (single isomer, unassigned) : 0.66
C=CCOC(=O)CS[C@@H]1C[C@@]2(C)C(=O)[C@H](OC(C)=O)C3=C(C)[C@@H](OC(=O)[C@H](O)[C@@H](NC(=O)c4ccccc4)c4ccccc4)C[C@@](O)([C@@H](OC(=O)c4ccccc4)[C@@H]2[C@]2(OC(C)=O)CO[C@H]12)C3(C)C : 9
CSCS[C@@H]1C[C@@]2(C)C(=O)[C@H](OC(C)=O)C3=C(C)[C@@H](OC(=O)[C@H](O)[C@@H](NC(=O)c4ccccc4)c4ccccc4)C[C@@](O)([C@@H](OC(=O)c4ccccc4)[C@@H]2[C@]2(OC(C)=O)CO[C@H]12)C3(C)C : 3.5
CC(=O)O[C@H]1C(=O)[C@]2(C)C[C@@H]([S+]([O-])CC#N)[C@H]3OC[C@@]3(OC(C)=O)[C@H]2[C@H](OC(=O)c2ccccc2)[C@]2(O)C[C@H](OC(=O)[C@H](O)[C@@H](NC(=O)c3ccccc3)c3ccccc3)C(C)=C1C2(C)C (single isomer, unassigned) : 28
COCS[C@@H]1C[C@@]2(C)C(=O)[C@H](OC(C)=O)C3=C(C)[C@@H](OC(=O)[C@H](O)[C@@H](NC(=O)c4ccccc4)c4ccccc4)C[C@@](O)([C@@H](OC(=O)c4ccccc4)[C@@H]2[C@]2(OC(C)=O)CO[C@H]12)C3(C)C : 1.9

* * *

- System: M5076 murine sarcoma
- assayOverview: sc M5076 murine sarcoma model, tumor growth delay
- Type: in vivo
- testContext: sc M5076, iv on days 1, 3, 5, 7, and 9 post-implant, at optimal dose
Quick reference for Maximum T-C in LCK (gross log cell kill) among some molecules
valueType: Maximum T-C in LCK (gross log cell kill)

COCS[C@@H]1C[C@@]2(C)C(=O)[C@H](OC(C)=O)C3=C(C)[C@@H](OC(=O)[C@H](O)[C@@H](NC(=O)c4ccccc4)c4ccccc4)C[C@@](O)([C@@H](OC(=O)c4ccccc4)[C@@H]2[C@]2(OC(C)=O)CO[C@H]12)C3(C)C [Compound 48] : 0.2 LCK
CSCS[C@@H]1C[C@@]2(C)C(=O)[C@H](OC(C)=O)C3=C(C)[C@@H](OC(=O)[C@H](O)[C@@H](NC(=O)c4ccccc4)c4ccccc4)C[C@@](O)([C@@H](OC(=O)c4ccccc4)[C@@H]2[C@]2(OC(C)=O)CO[C@H]12)C3(C)C [Compound 46] : 0 LCK
CS[C@@H]1C[C@@]2(C)C(=O)[C@H](OC(C)=O)C3=C(C)[C@@H](OC(=O)[C@H](O)[C@@H](NC(=O)c4ccccc4)c4ccccc4)C[C@@](O)([C@@H](OC(=O)c4ccccc4)[C@@H]2[C@]2(OC(C)=O)CO[C@H]12)C3(C)C [Compound 9, 7-deoxy-6β-thiomethylpaclitaxel] : 1.1 LCK
CC(=O)O[C@H]1C(=O)[C@]2(C)C[C@@H]([S+]([O-])CC#N)[C@H]3OC[C@@]3(OC(C)=O)[C@H]2[C@H](OC(=O)c2ccccc2)[C@]2(O)C[C@H](OC(=O)[C@H](O)[C@@H](NC(=O)c3ccccc3)c3ccccc3)C(C)=C1C2(C)C (single isomer, unassigned) [Compound 38, 6b-cyanomethylsulfoxo-7-deoxypaclitaxel] : 0 LCK

* * *

- Tested on: M5076 murine sarcoma
- assayOverview: sc M5076 murine sarcoma model, tumor growth delay
- Type: in vivo
- testContext: sc M5076, iv on days 1, 3, 5, 7, and 9 post-implant, at optimal dose
valueType: Maximum T-C in LCK (gross log cell kill) (LCK)

CC(=O)O[C@H]1C(=O)[C@]2(C)C[C@@H](SC#N)[C@H]3OC[C@@]3(OC(C)=O)[C@H]2[C@H](OC(=O)c2ccccc2)[C@]2(O)C[C@H](OC(=O)[C@H](O)[C@@H](NC(=O)c3ccccc3)c3ccccc3)C(C)=C1C2(C)C : 0.7
CS[C@@H]1C[C@@]2(C)C(=O)[C@H](OC(C)=O)C3=C(C)[C@@H](OC(=O)[C@H](O)[C@@H](NC(=O)OC(C)(C)C)c4ccccc4)C[C@@](O)([C@@H](OC(=O)c4ccccc4)[C@@H]2[C@]2(OC(C)=O)CO[C@H]12)C3(C)C : 1.2
CC(=O)O[C@H]1C(=O)[C@]2(C)C[C@@H](S)[C@H]3OC[C@@]3(OC(C)=O)[C@H]2[C@H](OC(=O)c2ccccc2)[C@]2(O)C[C@H](OC(=O)[C@H](O)[C@@H](NC(=O)c3ccccc3)c3ccccc3)C(C)=C1C2(C)C : 0.5
CCOC(=O)N[C@@H](c1ccccc1)[C@@H](O)C(=O)O[C@H]1C[C@@]2(O)[C@@H](OC(=O)c3ccccc3)[C@@H]3[C@]4(OC(C)=O)CO[C@@H]4[C@H](SC)C[C@@]3(C)C(=O)[C@H](OC(C)=O)C(=C1C)C2(C)C : 1.1

* * *

- Tested on: HCT-116 human colon carcinoma cells
- assayOverview: MTS cytotoxicity assay (72 h exposure)
- Type: cell-based
- testContext: Homo sapiens, HCT-116, 72 h, read-out: Cytotoxicity Assay IC50 against HCT 116 Human colon tumor cell line
pIC50: −log10 of the molar value.
Would you mind labelling by pIC50? At or over 9 is 1 (yes), under is 0 (no).

COC(=O)CS[C@@H]1C[C@@]2(C)C(=O)[C@H](OC(C)=O)C3=C(C)[C@@H](OC(=O)[C@H](O)[C@@H](NC(=O)c4ccccc4)c4ccccc4)C[C@@](O)([C@@H](OC(=O)c4ccccc4)[C@@H]2[C@]2(OC(C)=O)CO[C@H]12)C3(C)C : 0 (no)
CS[C@@H]1C[C@@]2(C)C(=O)[C@H](OC(C)=O)C3=C(C)[C@@H](OC(=O)[C@H](O)[C@@H](NC(=O)OC(C)(C)C)c4ccccc4)C[C@@](O)([C@@H](OC(=O)c4ccccc4)[C@@H]2[C@]2(OC(C)=O)CO[C@H]12)C3(C)C : 1 (yes)
CC(=O)O[C@H]1C(=O)[C@]2(C)C[C@@H](SC#N)[C@H]3OC[C@@]3(OC(C)=O)[C@H]2[C@H](OC(=O)c2ccccc2)[C@]2(O)C[C@H](OC(=O)[C@H](O)[C@@H](NC(=O)c3ccccc3)c3ccccc3)C(C)=C1C2(C)C : 0 (no)
C=CS[C@@H]1C[C@@]2(C)C(=O)[C@H](OC(C)=O)C3=C(C)[C@@H](OC(=O)[C@H](O)[C@@H](NC(=O)c4ccccc4)c4ccccc4)C[C@@](O)([C@@H](OC(=O)c4ccccc4)[C@@H]2[C@]2(OC(C)=O)CO[C@H]12)C3(C)C : 1 (yes)

* * *

- Tested on: M5076 murine sarcoma
- assayOverview: sc M5076 murine sarcoma model, tumor growth delay
- Type: in vivo
- testContext: sc M5076, iv on days 1, 3, 5, 7, and 9 post-implant, at optimal dose
Would you mind labelling by Maximum T-C in LCK (gross log cell kill)? At or over 0.4 LCK is 1, under is 0.

CC(=O)O[C@H]1C(=O)[C@]2(C)C[C@@H](S(C)(=O)=O)[C@H]3OC[C@@]3(OC(C)=O)[C@H]2[C@H](OC(=O)c2ccccc2)[C@]2(O)C[C@H](OC(=O)[C@H](O)[C@@H](NC(=O)c3ccccc3)c3ccccc3)C(C)=C1C2(C)C [Compound 21, 7-deoxy6β-methyl sulfone-paclitaxel] : 0
CC(=O)O[C@H]1C(=O)[C@]2(C)C[C@@H](SCCO)[C@H]3OC[C@@]3(OC(C)=O)[C@H]2[C@H](OC(=O)c2ccccc2)[C@]2(O)C[C@H](OC(=O)[C@H](O)[C@@H](NC(=O)c3ccccc3)c3ccccc3)C(C)=C1C2(C)C [Compound 15] : 0
CC(=O)O[C@H]1C(=O)[C@]2(C)C[C@@H](SCC(N)=O)[C@H]3OC[C@@]3(OC(C)=O)[C@H]2[C@H](OC(=O)c2ccccc2)[C@]2(O)C[C@H](OC(=O)[C@H](O)[C@@H](NC(=O)c3ccccc3)c3ccccc3)C(C)=C1C2(C)C [Compound 44, 7-deoxy-6b-thioacetamidepaclitaxel] : 0
CC(=O)O[C@H]1C(=O)[C@]2(C)C[C@@H](SC(C)=O)[C@H]3OC[C@@]3(OC(C)=O)[C@H]2[C@H](OC(=O)c2ccccc2)[C@]2(O)C[C@H](OC(=O)[C@H](O)[C@@H](NC(=O)c3ccccc3)c3ccccc3)C(C)=C1C2(C)C [Compound 11, 7-deoxy-6β-thioacetoxypaclitaxel] : 1
CC(=O)O[C@H]1C(=O)[C@]2(C)C[C@@H](SCC#N)[C@H]3OC[C@@]3(OC(C)=O)[C@H]2[C@H](OC(=O)c2ccccc2)[C@]2(O)C[C@H](OC(=O)[C@H](O)[C@@H](NC(=O)c3ccccc3)c3ccccc3)C(C)=C1C2(C)C [Compound 36, 6b-thioacetonitrile-7-deoxypaclitaxel] : 1
C=CS[C@@H]1C[C@@]2(C)C(=O)[C@H](OC(C)=O)C3=C(C)[C@@H](OC(=O)[C@H](O)[C@@H](NC(=O)c4ccccc4)c4ccccc4)C[C@@](O)([C@@H](OC(=O)c4ccccc4)[C@@H]2[C@]2(OC(C)=O)CO[C@H]12)C3(C)C [Compound 50, 6b-thioethenyl-7-deoxypaclitaxel] : 1
